# System: up to 32 different microorganisms
# measurement protocol: in vitro antibacterial activity (MIC), agar dilution on Brain Heart Infusion (BHI) agar with Steers replicator
# Type: cell-based
# measurement conditions: organism code KK; unit assumed

compound | MIC
CCC1OC(=O)C(C)C(=O)C(C)C(OC2OC(C)CC(N(C)C)C2O)C(C)(OCC(O)c2ccccc2)CC(C)C(=O)C(C)C2NC(=O)OC12C (single isomer, unassigned) [Example 261B] | 0.39 µg/mL
C=C(C#CCO[C@@]1(C)C[C@@H](C)C(=O)[C@H](C)[C@H]2NC(=O)O[C@]2(C)[C@@H](CC)OC(=O)[C@H](C)C(=O)[C@H](C)[C@H]1O[C@@H]1O[C@H](C)C[C@H](N(C)C)[C@H]1O)c1ccccc1 | 0.05 µg/mL
CC[C@H]1OC(=O)[C@H](C)C(=O)[C@H](C)[C@@H](O[C@@H]2O[C@H](C)C[C@H](N(C)C)[C@H]2O)[C@@](C)(OCC2COC(C)(C)O2)C[C@@H](C)C(=O)[C@H](C)[C@H]2NC(=O)O[C@@]21C (stereo partly drawn) | 0.78 µg/mL
CCC1OC(=O)C(C)C(=O)C(C)C(OC2OC(C)CC(N(C)C)C2O)C(C)(OCC=Cc2ccc(-c3ccon3)s2)CC(C)C(=O)C(C)C2NC(=O)OC12C (stereo not drawn) | 0.02 µg/mL
CCC1OC(=O)C(C)C(=O)C(C)C(OC2OC(C)CC(N(C)C)C2O)C(C)(OCC(O)c2ccccc2)CC(C)C(=O)C(C)C2NC(=O)OC12C (single isomer, unassigned) [Example 261A] | 0.39 µg/mL
CC[C@H]1OC(=O)[C@H](C)C(=O)[C@H](C)[C@@H](O[C@@H]2O[C@H](C)C[C@H](N(C)C)[C@H]2O)[C@@](C)(OCC#Cc2ccccc2)C[C@@H](C)C(=O)[C@H](C)[C@H]2NC(=O)O[C@@]21C | 0.02 µg/mL
CC[C@H]1OC(=O)[C@H](C)C(=O)[C@H](C)[C@@H](O[C@@H]2O[C@H](C)C[C@H](N(C)C)[C@H]2O)[C@@](C)(OCC=Cc2ccc3ncc(Br)cc3c2)C[C@@H](C)C(=O)[C@H](C)[C@H]2NC(=O)O[C@@]21C | 0.02 µg/mL
CCC1OC(=O)C(C)C(=O)C(C)C(OC2OC(C)CC(N(C)C)C2O)C(C)(OCC#Cc2cnc3ccccc3c2)CC(C)C(=O)C(C)C2NC(=O)OC12C (stereo not drawn) | 0.01 µg/mL
CCC1OC(=O)C(C)C(=O)C(C)C(OC2OC(C)CC(N(C)C)C2O)C(C)(OCC=Cc2ccc3ncc(-c4cccs4)cc3c2)CC(C)C(=O)C(C)C2NC(=O)OC12C (stereo not drawn) | 0.05 µg/mL

###

# Tested on: up to 32 different microorganisms
# measurement protocol: in vitro antibacterial activity (MIC), agar dilution on Brain Heart Infusion (BHI) agar with Steers replicator
# Assay type: cell-based
# measurement conditions: organism code QQ; unit assumed
property name: MIC

molecule | result
CC[C@H]1OC(=O)[C@H](C)C(=O)[C@H](C)[C@@H](O[C@@H]2O[C@H](C)C[C@H](N(C)C)[C@H]2O)[C@@](C)(OCC=NOCc2ccc([N+](=O)[O-])cc2)C[C@@H](C)C(=O)[C@H](C)[C@H]2NC(=O)O[C@@]21C | 100 µg/mL
CCC1OC(=O)C(C)C(=O)C(C)C(OC2OC(C)CC(N(C)C)C2O)C(C)(OCC=Cc2ccc3ncc(-c4ccccc4)cc3c2)CC(C)C(=O)C(C)C2NC(=O)OC12C (centres unmarked) | > 100 µg/mL

###

# reported MIC; entries follow
# Tested on: up to 32 different microorganisms
# measurement protocol: in vitro antibacterial activity (MIC), agar dilution on Brain Heart Infusion (BHI) agar with Steers replicator
# Type: cell-based
# measurement conditions: organism code II; unit assumed
property name: MIC (µg/mL)

compound | property name | readout number
CCC1OC(=O)C(C)C(=O)C(C)C(OC2OC(C)CC(N(C)C)C2O)C(C)(OCC(O)c2ccccc2)CC(C)C(=O)C(C)C2NC(=O)OC12C (single isomer, unassigned) [Example 261B] | MIC | 0.78
CC[C@H]1OC(=O)[C@H](C)C(=O)[C@H](C)[C@@H](O[C@@H]2O[C@H](C)C[C@H](N(C)C)[C@H]2O)[C@@](C)(OCCNCc2ccc3ncccc3c2)C[C@@H](C)C(=O)[C@H](C)[C@H]2NC(=O)O[C@@]21C | MIC | 0.05

###

# Tested on: up to 32 different microorganisms
# measurement protocol: in vitro antibacterial activity (MIC), agar dilution on Brain Heart Infusion (BHI) agar with Steers replicator
# Assay type: cell-based
# measurement conditions: organism code EE; unit assumed

molecule | MIC / µg/mL
CC[C@H]1OC(=O)[C@H](C)C(=O)[C@H](C)[C@@H](O[C@@H]2O[C@H](C)C[C@H](N(C)C)[C@H]2O)[C@@](C)(OCC(=O)c2ccccc2)C[C@@H](C)C(=O)[C@H](C)[C@H]2NC(=O)O[C@@]21C | 6.2
CCC1OC(=O)C(C)C(=O)C(C)C(OC2OC(C)CC(N(C)C)C2O)C(C)(OCC=Cc2ccc(F)c3ccccc23)CC(C)C(=O)C(C)C2NC(=O)OC12C (stereo not shown) | 0.39
CC[C@H]1OC(=O)[C@H](C)C(=O)[C@H](C)[C@@H](O[C@@H]2O[C@H](C)C[C@H](N(C)C)[C@H]2O)[C@@](C)(OCC=NOCc2ccc3ncccc3c2)C[C@@H](C)C(=O)[C@H](C)[C@H]2NC(=O)O[C@@]21C | 0.2
CC[C@H]1OC(=O)[C@H](C)C(=O)[C@H](C)[C@@H](O[C@@H]2O[C@H](C)C[C@H](N(C)C)[C@H]2O)[C@@](C)(OCC#Cc2ccccc2)C[C@@H](C)C(=O)[C@H](C)[C@H]2NC(=O)O[C@@]21C | 0.2
CCC1OC(=O)C(C)C(=O)C(C)C(OC2OC(C)CC(N(C)C)C2O)C(C)(OCC#Cc2cnc3ccccc3c2)CC(C)C(=O)C(C)C2NC(=O)OC12C (stereo not shown) | 0.05
CCC1OC(=O)C(C)C(=O)C(C)C(OC2OC(C)CC(N(C)C)C2O)C(C)(OCC=Cc2ccnc3ccccc23)CC(C)C(=O)C(C)C2NC(=O)OC12C (stereo not shown) | 0.2
C#CCOC1(C)CC(C)C(=O)C(C)C2NC(=O)OC2(C)C(CC)OC(=O)C(C)C(=O)C(C)C1OC1OC(C)CC(N(C)C)C1O (stereo not shown) | 0.78
CC[C@H]1OC(=O)[C@H](C)C(=O)[C@H](C)[C@@H](O[C@@H]2O[C@H](C)C[C@H](N(C)C)[C@H]2O)[C@@](C)(OCC(=O)c2ccc(F)cc2)C[C@@H](C)C(=O)[C@H](C)[C@H]2NC(=O)O[C@@]21C | 3.1
CC[C@H]1OC(=O)[C@H](C)C(=O)[C@H](C)[C@@H](O[C@@H]2O[C@H](C)C[C@H](N(C)C)[C@H]2O)[C@@](C)(OCC#Cc2ccc3nc(C)ccc3c2)C[C@@H](C)C(=O)[C@H](C)[C@H]2NC(=O)O[C@@]21C | 0.2
CCC1OC(=O)C(C)C(=O)C(C)C(OC2OC(C)CC(N(C)C)C2O)C(C)(OCc2cccc(I)c2)CC(C)C(=O)C(C)C2NC(=O)OC12C (stereo not shown) | 3.1

###

# reported MIC; entries follow
# System: up to 32 different microorganisms
# measurement protocol: in vitro antibacterial activity (MIC), agar dilution on Brain Heart Infusion (BHI) agar with Steers replicator
# Format: cell-based
# measurement conditions: organism code HH; unit assumed
# Description: Representative compounds of the present invention were assayed in vitro for antibacterial activity as follows: Twelve petri dishes containing successive aqueous dilutions of the test compound mixed with 10 mL of sterilized Brain Heart Infusion (BHI) agar (Difco 0148-01-5) were prepared. Each plate was inoculated with 1:100 (or 1:10 for slow-growing strains, such as Micrococcus and Streptococcus) dilutions of up to 32 different microorganisms, using a Steers replicator block. […]
property name: MIC (µg/mL)

compound | property name | readout number
CCC1OC(=O)C(C)C(=O)C(C)C(OC2OC(C)CC(N(C)C)C2O)C(C)(OCC=Cc2ccc3cc(O)c(C(=O)Nc4ccccc4OC)cc3c2)CC(C)C(=O)C(C)C2NC(=O)OC12C (stereo not drawn) [Example 206] | MIC | 0.78
CC[C@H]1OC(=O)[C@H](C)C(=O)[C@H](C)[C@@H](O[C@@H]2O[C@H](C)C[C@H](N(C)C)[C@H]2O)[C@@](C)(OCCNCc2ccc3ncccc3c2)C[C@@H](C)C(=O)[C@H](C)[C@H]2NC(=O)O[C@@]21C [Example 227] | MIC | 0.2
CCC1OC(=O)C(C)C(=O)C(C)C(OC2OC(C)CC(N(C)C)C2O)C(C)(OCC=Cc2cn(C)c(=O)n(C)c2=O)CC(C)C(=O)C(C)C2NC(=O)OC12C (stereo not drawn) [Example 293] | MIC | 0.39
CCC1OC(=O)C(C)C(=O)C(C)C(OC2OC(C)CC(N(C)C)C2O)C(C)(OCC#CC=Cc2ccccc2)CC(C)C(=O)C(C)C2NC(=O)OC12C (stereo not drawn) [Example 291] | MIC | 0.05
CCC1OC(=O)C(C)C(=O)C(C)C(OC2OC(C)CC(N(C)C)C2O)C(C)(OCC=Cc2cnc3c([N+](=O)[O-])cccc3c2)CC(C)C(=O)C(C)C2NC(=O)OC12C (stereo not drawn) [Example 211, R is —CH2CH═CH-(8-nitro-3-quinolyl)] | MIC | 0.05
CC[C@H]1OC(=O)[C@H](C)C(=O)[C@H](C)[C@@H](O[C@@H]2O[C@H](C)C[C@H](N(C)C)[C@H]2O)[C@@](C)(OCCNOCc2ccccc2)C[C@@H](C)C(=O)[C@H](C)[C@H]2NC(=O)O[C@@]21C [Example 237] | MIC | 0.39
